Origin of values: ChEMBL document CHEMBL4619778

- Target entity: Neuropeptide Y receptor type 4 (Homo sapiens, UniProt P50391)
- Sequence (P50391 whole entry): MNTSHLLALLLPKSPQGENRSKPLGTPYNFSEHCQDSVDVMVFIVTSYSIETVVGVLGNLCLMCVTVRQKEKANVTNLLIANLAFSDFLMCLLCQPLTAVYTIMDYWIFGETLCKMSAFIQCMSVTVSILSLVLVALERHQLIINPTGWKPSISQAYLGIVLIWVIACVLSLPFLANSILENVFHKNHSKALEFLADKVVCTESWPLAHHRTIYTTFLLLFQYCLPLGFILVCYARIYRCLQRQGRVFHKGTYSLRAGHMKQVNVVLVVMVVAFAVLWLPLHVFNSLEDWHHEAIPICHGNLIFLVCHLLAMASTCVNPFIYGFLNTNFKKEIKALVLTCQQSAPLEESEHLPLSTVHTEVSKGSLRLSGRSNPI
- Assay text: Displacement of [3H]UR-KK200 from human Y4 receptor expressed in CHO cells co-expressing Gqi5-mtAEQ measured after 90 mins by scintillation counting analysis
- Assay type: cell-based
- Condition info: read-out: pKi (converted)
Observed property: Ki (nM)
Numbers only here, please. The scale is nM.

# input Fill in the blank: the reported Ki of `H-RYRARY-NH2` is ____.
# output 229

---
# input Fill in the blank: the reported Ki of `H-RYRWRY-NH2` is ____.
# output 26.9

# input Please answer likewise for `Ac-RGYRWRW-NH2`
# output 240

# input Please answer likewise for `Ac-RGYRLRW-NH2`
# output 30.9

# input Please answer likewise for `Ac-RYRWRY-NH2`
# output 89.1

# input Please answer likewise for `Ac-RGRLRY-NH2`
# output 7.59

# input Please answer likewise for `Ac-RFRLRY-NH2`
# output 8.71
